Consider the following compounds and their measured pIC50 readings.
Target: 20S Human Erythrocyte Proteasome (HEP) (Homo sapiens, UniProt P20618+P28074)
Construct: 20S Human Erythrocyte Proteasome (HEP), purchased from Immatics Biotechnologies Inc; purchased Immatics Biotechnologies Inc., Tübingen, Germany; host or cells: human erythrocytes (natural source)
Test: Chymotrypsin-like activity of 20S Human Erythrocyte Proteasome (HEP), IC50 determination
Assay type: biochemical
Settings: assay of Example C, inhibition of HEP
pIC50: −log10 of the molar value.

Reported pIC50 of COC(=O)CCCCCCC(=O)N[C@@H](CCCNC(=N)N[N+](=O)[O-])C(=O)N[C@@H](CC(C)C)B(O)O : > 8.00

Reported pIC50 of CCCCCCCOc1ccc(NC(=O)N[C@@H](CCCNC(=N)N[N+](=O)[O-])C(=O)N[C@@H](CC(C)C)B2O[C@@H]3C[C@@H]4C[C@@H](C4(C)C)[C@]3(C)O2)cc1 : > 8.00

Reported pIC50 of CC(C)C[C@H](NC(=O)[C@H](CCCNC(=N)N[N+](=O)[O-])NC(=O)CCCCC1CCCCC1)B1O[C@@H]2C[C@@H]3C[C@@H](C3(C)C)[C@]2(C)O1 : > 8.00

###

Consider the following compounds and their measured EC50 readings.
Target: proteasome in Molt-4 cells (human leukemia) (Homo sapiens, UniProt P20618+P28074)
Sequence (P28074 60-263): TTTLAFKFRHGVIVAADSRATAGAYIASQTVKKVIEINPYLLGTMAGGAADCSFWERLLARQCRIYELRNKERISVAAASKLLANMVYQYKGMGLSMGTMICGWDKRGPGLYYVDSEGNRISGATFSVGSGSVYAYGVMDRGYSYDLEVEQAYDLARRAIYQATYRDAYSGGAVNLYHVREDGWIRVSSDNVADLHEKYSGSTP
Sequence (P20618 29-241): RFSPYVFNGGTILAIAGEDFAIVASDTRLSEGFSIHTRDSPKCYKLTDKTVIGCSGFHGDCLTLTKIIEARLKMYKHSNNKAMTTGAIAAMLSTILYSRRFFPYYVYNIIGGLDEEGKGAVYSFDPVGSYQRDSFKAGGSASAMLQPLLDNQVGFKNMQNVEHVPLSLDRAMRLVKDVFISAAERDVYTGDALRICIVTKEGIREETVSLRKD
Format: cell-based
Settings: assay of Example E, inhibition of MOLT4; read-out: MOLT4 (EC50)

Here are 2 compounds together with their reported answers.
compound | EC50
CCOc1ccc(C(=O)N[C@@H](CCCNC(=N)N[N+](=O)[O-])C(=O)N[C@@H](CC(C)C)B(O)O)cc1 [D.7.31] | > 10000 nM
CCCCc1ccc(C(=O)N[C@@H](CNS(=O)(=O)c2ccc(F)cc2)C(=O)N[C@@H](CC(C)C)B2O[C@@H]3C[C@@H]4C[C@@H](C4(C)C)[C@]3(C)O2)cc1 [D.19] | < 200 nM

Reported EC50 of CC(C)C[C@H](NC(=O)[C@@H](NC(=O)c1ccc2ccccc2c1)[C@@H](C)O)B1O[C@@H]2C[C@@H]3C[C@@H](C3(C)C)[C@]2(C)O1 [D.3.180] : < 200 nM

###

Consider the following molecules and their measured EC50 readings.
Molecular target: proteasome in Molt-4 cells (human leukemia) (Homo sapiens, UniProt P20618+P28074)
Type: cell-based
Settings: assay of Example E, inhibition of MOLT4; read-out: MOLT4 (EC50)

smiles-notation | tested-target | EC50
CCCCc1ccc(C(=O)N[C@@H](CC(N)=O)C(=O)N[C@@H](CC(C)C)B(O)O)cc1 | proteasome in Molt-4 cells (human leukemia) (Homo sapiens, UniProt P20618+P28074) | 0.2 to 2 µM

Reported EC50 of CC(C)C[C@H](NC(=O)[C@H](CCCNC(=N)N[N+](=O)[O-])NC(=O)CCc1ccccc1)B(O)O : > 10 µM

###

Molecular target: proteasome in Molt-4 cells (human leukemia) (Homo sapiens, UniProt P20618+P28074)
Type: cell-based
Conditions: assay of Example E, inhibition of MOLT4; read-out: MOLT4 (EC50)
Method: Cellular Assay for Chymotrypsin-like activity of Proteasome in Molt-4 Cell Line The chymotrypsin-like activity of proteasome in Molt-4 cells (human leukemia) was assayed according to the following procedure. […] The concentration of free AFC was monitored every 1.5 min for 30 min ([…]) on a Polastar Optima, BMG Labtechnologies microplate reader, using an excitation wavelength of 390 nm and emission wavelength of 520 nm. […]
pEC50: −log10 of the molar value.
property-label: pEC50

Here are 5 molecules together with their reported answers.
molecule | tested-target | property-label | result
CC(C)C[C@H](NC(=O)[C@H](CCCNC(=N)N[N+](=O)[O-])NC(=O)COc1ccc(C(C)C)cc1)B1O[C@@H]2C[C@@H]3C[C@@H](C3(C)C)[C@]2(C)O1 [D.3.54] | proteasome in Molt-4 cells (human leukemia) (Homo sapiens, UniProt P20618+P28074) | pEC50 | > 6.70
CC(C)C[C@H](NC(=O)[C@H](CCCNC(=N)N[N+](=O)[O-])NC(=O)CCCCC1CCCCC1)B(O)O [D.7.24] | proteasome in Molt-4 cells (human leukemia) (Homo sapiens, UniProt P20618+P28074) | pEC50 | 5.70 to 6.70
CC(C)C[C@H](NC(=O)[C@H](CCCNC(=N)N[N+](=O)[O-])NC(=O)CC1C=CCC1)B1O[C@@H]2C[C@@H]3C[C@@H](C3(C)C)[C@]2(C)O1 (mixture of isomers) [D.3.59] | proteasome in Molt-4 cells (human leukemia) (Homo sapiens, UniProt P20618+P28074) | pEC50 | 5.70 to 6.70
CC(C)C[C@H](NC(=O)[C@H](CCCNC(=N)N[N+](=O)[O-])NC(=O)CCCc1ccccc1)B1O[C@@H]2C[C@@H]3C[C@@H](C3(C)C)[C@]2(C)O1 [D.3.12] | proteasome in Molt-4 cells (human leukemia) (Homo sapiens, UniProt P20618+P28074) | pEC50 | > 6.70
CC(C)C[C@H](NC(=O)[C@H](CCCNC(=N)N[N+](=O)[O-])NC(=O)Cc1ccsc1)B(O)O [E.2.62] | proteasome in Molt-4 cells (human leukemia) (Homo sapiens, UniProt P20618+P28074) | pEC50 | < 5.00

Record CC(C)C[C@H](NC(=O)[C@H](CCCNC(=N)N[N+](=O)[O-])NC(=O)CCCCCO)B1O[C@@H]2C[C@@H]3C[C@@H](C3(C)C)[C@]2(C)O1 [D.3.192] has proteasome in Molt-4 cells (human leukemia) (Homo sapiens, UniProt P20618+P28074) pEC50 equal to 5.00 to 5.70

Record CCCCOCC(=O)N[C@@H](CCCNC(=N)N[N+](=O)[O-])C(=O)N[C@@H](CC(C)C)B(O)O [E.1.7] has proteasome in Molt-4 cells (human leukemia) (Homo sapiens, UniProt P20618+P28074) pEC50 equal to 5.00 to 5.70

Record CCCCc1ccc(C(=O)N[C@@H](CNC(=O)C#Cc2ccccc2)C(=O)N[C@@H](CC(C)C)B(O)O)cc1 [E.5.35] has proteasome in Molt-4 cells (human leukemia) (Homo sapiens, UniProt P20618+P28074) pEC50 equal to > 6.70

Record CC(C)C[C@H](NC(=O)[C@H](CC(N)=O)NC(=O)c1cnccn1)B1O[C@@H]2C[C@@H]3C[C@@H](C3(C)C)[C@]2(C)O1 [D.8.18] has proteasome in Molt-4 cells (human leukemia) (Homo sapiens, UniProt P20618+P28074) pEC50 equal to 5.70 to 6.70

Record COCCOCC(=O)N[C@@H](CCCNC(=N)N[N+](=O)[O-])C(=O)N[C@@H](CC(C)C)B1O[C@@H]2C[C@@H]3C[C@@H](C3(C)C)[C@]2(C)O1 [D.1.6] has proteasome in Molt-4 cells (human leukemia) (Homo sapiens, UniProt P20618+P28074) pEC50 equal to 5.70 to 6.70

Record CC(C)C[C@H](NC(=O)[C@H](CCCNC(=N)N[N+](=O)[O-])NC(=O)CCCc1cccs1)B(O)O [D.7.19] has proteasome in Molt-4 cells (human leukemia) (Homo sapiens, UniProt P20618+P28074) pEC50 equal to 5.00 to 5.70

Record Cc1ccc(C)c(CC(=O)N[C@@H](CCCNC(=N)N[N+](=O)[O-])C(=O)N[C@@H](CC(C)C)B(O)O)c1 [E.2.56] has proteasome in Molt-4 cells (human leukemia) (Homo sapiens, UniProt P20618+P28074) pEC50 equal to 5.00 to 5.70

Record CCCCc1ccc(C(=O)N[C@@H](CNC(=O)c2cccs2)C(=O)N[C@@H](CC(C)C)B(O)O)cc1 [E.5.7] has proteasome in Molt-4 cells (human leukemia) (Homo sapiens, UniProt P20618+P28074) pEC50 equal to > 6.70

Record CC(C)C[C@H](NC(=O)[C@H](CCCNC(=N)N[N+](=O)[O-])NC(=O)c1cccc(NC(=O)OC(C)(C)C)c1)B1O[C@@H]2C[C@@H]3C[C@@H](C3(C)C)[C@]2(C)O1 [D.1.5] has proteasome in Molt-4 cells (human leukemia) (Homo sapiens, UniProt P20618+P28074) pEC50 equal to 5.70 to 6.70

Record CC(C)C[C@H](NC(=O)[C@H](CCCNC(=N)N[N+](=O)[O-])NC(=O)CCCCCCCCCN1C(=O)c2ccccc2C1=O)B1O[C@@H]2C[C@@H]3C[C@@H](C3(C)C)[C@]2(C)O1 [D.2] has proteasome in Molt-4 cells (human leukemia) (Homo sapiens, UniProt P20618+P28074) pEC50 equal to > 6.70

Record CC(C)C[C@H](NC(=O)[C@H](CCCNC(=N)N[N+](=O)[O-])NC(=O)CCCCCCCCCCCN1C(=O)c2ccccc2C1=O)B1O[C@@H]2C[C@@H]3C[C@@H](C3(C)C)[C@]2(C)O1 [D.3.189] has proteasome in Molt-4 cells (human leukemia) (Homo sapiens, UniProt P20618+P28074) pEC50 equal to > 6.70
